- Target or system: AxCT mask27 EGFR EH104 L067 version 1
Reported property: Percent cleavage (%)

| Protein | Units symbol | Numeric result |
| --- | --- | --- |
| Neutrophil Elastase (protein) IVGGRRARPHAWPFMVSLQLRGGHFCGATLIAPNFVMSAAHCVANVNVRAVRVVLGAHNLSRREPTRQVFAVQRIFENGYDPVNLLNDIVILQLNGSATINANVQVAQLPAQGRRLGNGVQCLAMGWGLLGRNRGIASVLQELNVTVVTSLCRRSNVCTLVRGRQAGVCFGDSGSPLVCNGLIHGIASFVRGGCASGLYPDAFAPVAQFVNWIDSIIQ | % | 32 |
| Cathepsin G (protein) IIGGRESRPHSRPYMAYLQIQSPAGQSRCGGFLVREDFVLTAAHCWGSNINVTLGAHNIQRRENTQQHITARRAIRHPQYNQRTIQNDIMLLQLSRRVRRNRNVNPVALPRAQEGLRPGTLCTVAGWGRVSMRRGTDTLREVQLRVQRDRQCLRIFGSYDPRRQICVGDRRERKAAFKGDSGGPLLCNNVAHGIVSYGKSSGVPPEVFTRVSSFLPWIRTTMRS | % | 0 |
| MMP-7 (protein) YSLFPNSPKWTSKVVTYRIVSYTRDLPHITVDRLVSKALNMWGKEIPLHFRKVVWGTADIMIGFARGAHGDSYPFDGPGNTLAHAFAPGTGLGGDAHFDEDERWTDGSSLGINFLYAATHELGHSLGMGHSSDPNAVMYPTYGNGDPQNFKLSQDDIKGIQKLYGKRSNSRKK | % | 0 |
| MMP-12 (protein) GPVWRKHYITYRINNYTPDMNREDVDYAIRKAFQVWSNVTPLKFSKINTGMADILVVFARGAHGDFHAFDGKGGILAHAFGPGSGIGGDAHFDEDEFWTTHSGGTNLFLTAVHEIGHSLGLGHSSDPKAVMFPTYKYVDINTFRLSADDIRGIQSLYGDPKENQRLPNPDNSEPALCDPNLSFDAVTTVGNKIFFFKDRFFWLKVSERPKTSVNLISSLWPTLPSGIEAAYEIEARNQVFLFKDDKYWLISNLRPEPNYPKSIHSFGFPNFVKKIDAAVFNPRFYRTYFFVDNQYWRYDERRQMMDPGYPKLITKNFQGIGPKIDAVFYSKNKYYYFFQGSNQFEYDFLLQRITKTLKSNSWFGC | % | 26 |
